# test.details: plasma pharmacokinetics after intranasal or intramuscular dosing
# conditions: mouse, plasma, inhaled or intranasal, 10 mg/kg, plasma t1/2 (overall curve), intranasal 10 mg/kg
result.type: half-life

Kindly note the recorded half-life for CC(=O)[C@H]1CC[C@H]2[C@@H]3CC[C@H]4C[C@H](O)CC[C@]4(C)[C@H]3CC[C@]12C [allopregnanolone, 3α-hydroxy-5α-pregnan-20-one] , which is 49 min

---

# test.details: plasma pharmacokinetics after intranasal or intramuscular dosing
# conditions: mouse, plasma, inhaled or intranasal, 10 mg/kg
# Method: Allopregnanolone (16 mg/mL in 40% Captisol® in 0.9% saline) was administered intranasally at a total dose of 10 mg/kg. 2-3 microliters of solution was administered 3-5 times to each nostril (6-10 times total) over a period of 3.5 min. […] Time course of plasma levels of allopregnanolone following intranasal allopregnanolone (10 mg/kg) and intramuscular allopregnanolone (12 mg/kg) was monitored. […]
result.type: Cmax (ng/mL)
Give bare numbers, in ng/mL.

Kindly note the recorded Cmax for CC(=O)[C@H]1CC[C@H]2[C@@H]3CC[C@H]4C[C@H](O)CC[C@]4(C)[C@H]3CC[C@]12C [allopregnanolone, 3α-hydroxy-5α-pregnan-20-one] , which is 3500

---

# test.details: brain region pharmacokinetics after intranasal dosing
# conditions: mouse, forebrain, cerebellum, inhaled or intranasal, 10 mg/kg
result.type: Cmax

Kindly note the recorded Cmax for CC(=O)[C@H]1CC[C@H]2[C@@H]3CC[C@H]4C[C@H](O)CC[C@]4(C)[C@H]3CC[C@]12C [allopregnanolone, 3α-hydroxy-5α-pregnan-20-one] , which is 600 to 700 ng/g

---

# test.details: brain region pharmacokinetics after intranasal dosing
# conditions: mouse, olfactory bulb, inhaled or intranasal, 10 mg/kg
result.type: Cmax (ng/g)
Give bare numbers, in ng/g.

Kindly note the recorded Cmax for CC(=O)[C@H]1CC[C@H]2[C@@H]3CC[C@H]4C[C@H](O)CC[C@]4(C)[C@H]3CC[C@]12C [allopregnanolone, 3α-hydroxy-5α-pregnan-20-one] , which is 16000

---

# test.details: plasma pharmacokinetics after intranasal or intramuscular dosing
# conditions: mouse, plasma, inhaled or intranasal, 10 mg/kg
result.type: Tmax (min)
Answers are plain numbers, in min.

Kindly note the recorded Tmax for CC(=O)[C@H]1CC[C@H]2[C@@H]3CC[C@H]4C[C@H](O)CC[C@]4(C)[C@H]3CC[C@]12C [allopregnanolone, 3α-hydroxy-5α-pregnan-20-one] , which is 1

---

# test.details: plasma pharmacokinetics after intranasal or intramuscular dosing
# conditions: mouse, plasma, inhaled or intranasal, 10 mg/kg, plasma initial phase t1/2, intranasal 10 mg/kg; first 15 min
result.type: half-life (min)
Answers are plain numbers, in min.

Kindly note the recorded half-life for CC(=O)[C@H]1CC[C@H]2[C@@H]3CC[C@H]4C[C@H](O)CC[C@]4(C)[C@H]3CC[C@]12C [allopregnanolone, 3α-hydroxy-5α-pregnan-20-one] , which is 4.9
